All figures here come from patent US6750228B1.

Target: MMP-2 (Homo sapiens, UniProt P08253)
Construct: made in house; provided by Dr. Gregory Goldberg, Washington University
Sequence (P08253 110-660): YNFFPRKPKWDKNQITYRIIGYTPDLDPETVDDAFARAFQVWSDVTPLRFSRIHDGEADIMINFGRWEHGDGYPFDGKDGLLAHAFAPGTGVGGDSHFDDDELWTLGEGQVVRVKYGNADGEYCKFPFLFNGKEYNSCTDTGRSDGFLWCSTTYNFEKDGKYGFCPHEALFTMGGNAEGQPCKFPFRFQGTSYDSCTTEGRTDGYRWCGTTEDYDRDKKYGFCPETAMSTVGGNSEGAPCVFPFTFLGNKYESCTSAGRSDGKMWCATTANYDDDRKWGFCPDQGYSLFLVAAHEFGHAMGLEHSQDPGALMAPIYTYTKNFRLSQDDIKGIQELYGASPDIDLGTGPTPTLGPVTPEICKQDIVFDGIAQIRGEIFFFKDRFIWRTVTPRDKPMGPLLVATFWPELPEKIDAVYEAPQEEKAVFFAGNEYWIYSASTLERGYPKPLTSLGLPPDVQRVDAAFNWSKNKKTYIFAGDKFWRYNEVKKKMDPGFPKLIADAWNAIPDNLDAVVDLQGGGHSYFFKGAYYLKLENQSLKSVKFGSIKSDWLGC
Assay: biochemical
Details: recombinant human MMP-2, MCA peptide substrate 4 μM, pH 7.5, room temperature; read-out: MMP-2 IC50
pIC50: −log10 of the molar value.
MEASUREMENT_NAME: pIC50

* CCCc1ccc(C(=O)C2CCN(c3ccc(S(=O)(=O)C4(C(=O)NO)CCOCC4)cc3)CC2)cc1 [Example 860] | 5.82
* O=C(NCc1ccccc1)N1CC(Oc2ccc(S(=O)(=O)C3(C(=O)NO)CCOCC3)cc2)C1 [Example 658] | 6.00
* CN(C)c1ccc(NC(=O)C2CCN(c3ccc(S(=O)(=O)C4(C(=O)NO)CCOCC4)cc3)CC2)cc1 [Example 78] | 6.14
* CCCCC(=O)N1CCN(c2ccc(S(=O)(=O)C3(C(=O)NO)CCOCC3)cc2)CC1 [Example 591] | 6.14
